tested on: A. baumannii (ATCC17978); test: 50% growth inhibitory concentration (IC50) determination assay, A. baumannii; format: cell-based; conditions: Acinetobacter baumannii, growth inhibition, Iso-Sensitest broth, OD 600 nm over 16 h, <0.098 = detection limit
metric.name: IC50 (µM)

Worked cases, answers included:
>>> val("CNc1cc(F)c(F)c2c1[nH]c1ncc(-c3cnc4c(c3)c(=O)c(C(=O)O)cn4C)c(N3C[C@@H]4[C@@H](N)[C@@H]4C3)c12")
0.654
>>> val("CNc1cc(F)c(C#N)c2c1[nH]c1ncc(-c3cnc4c(c3)c(=O)c(C(=O)O)cn4C)c(N3CC[C@@]4(C[C@@H]4N)C3)c12")
0.477

[1] CNc1cc(F)c(C#N)c2c1[nH]c1ncc(-c3cnc4c(c3)c(=O)c(C(=O)O)cn4C)c(N3C[C@H]4CC[C@@H](N)[C@H]4C3)c12 (relative stereo)
[2] CNc1cc(F)c(C#N)c2c1[nH]c1ncc(-c3cnc4c(c3)c(=O)c(C(=O)O)cn4C)c(N3CC[C@]4(C[C@@H]4N)C3)c12
[3] CNc1cc(F)c(F)c2c1[nH]c1ncc(-c3cnc4c(c3)c(=O)c(C(=O)O)cn4C)c(N3CCC4(C[C@H]4N)C3)c12 (mixture of isomers)
[4] CNc1cc(F)c(F)c2c1[nH]c1ncc(-c3cnc4c(c3)c(=O)c(C(=O)O)cn4C)c(N3CCC4(C[C@@H]4N)C3)c12 (mixture of isomers)
stdin: Parameters: sort_field (IC50), sort_dir (desc). Show the ranking through the labels, in the order asked for.
stdout: 1, 2, 3, 4
(1: 2.79 µM, 2: 0.497 µM, 3: 0.261 µM, 4: 0.155 µM)
